Parameter: log2 fold change. Scope: all listed entries.
Measured On: YIPF6 (UniProt Q96EC8)
Sequence (Q96EC8 whole entry, looked up): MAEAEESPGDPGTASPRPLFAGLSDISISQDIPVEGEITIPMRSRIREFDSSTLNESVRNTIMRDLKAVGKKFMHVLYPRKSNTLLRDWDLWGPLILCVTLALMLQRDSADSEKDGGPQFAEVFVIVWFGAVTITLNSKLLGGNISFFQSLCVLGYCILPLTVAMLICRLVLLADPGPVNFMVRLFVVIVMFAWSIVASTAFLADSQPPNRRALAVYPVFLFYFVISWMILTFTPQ
Assay Overview: log2 fold change, soluble protein after heating vs DMSO (PISA); higher = thermal stabilisation; K562 cells, 10 uM, 30 min; active = over 0.2 and 3.5 SD of the protein, either way, in both replicates (recomputed)
About 7,900 targets were measured; listed, in parts, are those with a hit and a random draw of the rest. About 0.6% of all pairs of compound and target were hits.

Cc1ccc(NC(=O)c2cccc(C(C)(C)C#N)c2)cc1Nc1ccc2ncn(C)c(=O)c2c1; -0.131 (inactive)
Cc1cc(Nc2cc(N3CCN(C)CC3)nc(Sc3ccc(NC(=O)C4CC4)cc3)n2)n[nH]1; -0.066 (inactive)
CNC(=O)c1ccc(Nc2ncc(C(F)(F)F)c(NCc3nccnc3N(C)S(C)(=O)=O)n2)cc1; -0.041 (inactive)

Next, consider the following compound.
Lab note: need log2 fold change for CS(=O)(=O)CCNCc1ccc(-c2ccc3ncnc(Nc4ccc(OCc5cccc(F)c5)c(Cl)c4)c3c2)o1 on YIPF6 (UniProt Q96EC8), anyone have it? 0.061 (inactive)
